Target: UniProtKB P08684
Sequence (P08684 whole entry): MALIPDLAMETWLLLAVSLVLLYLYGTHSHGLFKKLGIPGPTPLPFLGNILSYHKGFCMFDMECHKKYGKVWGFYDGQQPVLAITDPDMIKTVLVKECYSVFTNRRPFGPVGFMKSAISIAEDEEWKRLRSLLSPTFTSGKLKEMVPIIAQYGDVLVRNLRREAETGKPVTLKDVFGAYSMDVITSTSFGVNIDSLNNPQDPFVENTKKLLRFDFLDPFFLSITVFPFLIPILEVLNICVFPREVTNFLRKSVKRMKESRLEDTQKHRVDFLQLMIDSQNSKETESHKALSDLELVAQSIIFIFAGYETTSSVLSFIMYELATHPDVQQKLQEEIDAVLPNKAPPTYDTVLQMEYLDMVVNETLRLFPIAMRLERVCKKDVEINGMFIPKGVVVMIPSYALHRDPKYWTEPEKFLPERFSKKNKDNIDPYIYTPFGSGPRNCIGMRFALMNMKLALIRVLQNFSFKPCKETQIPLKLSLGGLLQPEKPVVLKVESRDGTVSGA
Test: CYP450 inhibition in HLM
Details: read-out: IC50 CYP3A4/Testosterone; (+)NADPH pre-incubation
readout_name: IC50

Q: Name the recorded IC50 of the molecule listed here: `FC(F)(F)c1c(Cl)ccc(-n2ccnn2)c1Cl`
A: > 50 µM

* * *

Experiment: Brain tissue binding, rapid equilibrium dialysis
Format: in vitro ADME, rat
Details: brain homogenate, pH 7.4; SD rat; 4 h
Experimental: Method: rapid equilibrium dialysis. Test System Mouse Brain Homogenate 10% w/v in PBS Incubation Time 5 h (mouse) or 4 h (rat) No. of Replicates Two (mouse) or three (rat) Buffer Phosphate buffer saline, pH 7.4 % Unbound in brain % Bound in brain % Compound Species / Matrix homogenate SD homogenate Recovery
readout_name: fraction unbound at 4 h, 2 µM
Respond with the number and no other words.

Q: Name the recorded fraction unbound at 4 h, 2 µM of the molecule listed here: CC(C)NCC(O)COc1cccc2ccccc12 (stereo not shown) [Propranolol, reference compound]
A: 0.026
